- test target: human mu opioid receptor (Homo sapiens)
- Construct: purchased Perkin Elmer RBHOMM400UA; host or cells: Chinese Hamster Ovary cells (recombinant expression)
- Sequence (P35372 whole entry): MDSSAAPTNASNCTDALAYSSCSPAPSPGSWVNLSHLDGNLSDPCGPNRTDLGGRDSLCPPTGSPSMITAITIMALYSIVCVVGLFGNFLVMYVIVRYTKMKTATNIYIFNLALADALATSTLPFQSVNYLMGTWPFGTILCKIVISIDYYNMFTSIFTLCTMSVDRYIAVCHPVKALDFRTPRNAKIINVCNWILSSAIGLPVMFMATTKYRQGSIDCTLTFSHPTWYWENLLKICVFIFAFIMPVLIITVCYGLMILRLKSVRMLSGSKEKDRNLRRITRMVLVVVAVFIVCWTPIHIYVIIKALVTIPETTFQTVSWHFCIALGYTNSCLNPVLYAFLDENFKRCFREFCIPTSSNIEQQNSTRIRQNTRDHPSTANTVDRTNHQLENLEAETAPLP
- assay text: Human Mu Opioid Receptor Binding Assay (CHO membranes, 3H-Damgo)
- experimental setup: read-out: hKi μ
property measured: log10 of Ki (log10 of the value in nM)
Base-10 log of Ki, unit nM.

Consider the worked cases shown below.
- compound: "Cc1[nH]c(CN(C(=O)[C@@H](N)Cc2ccc(O)cc2)C(C)C)nc1-c1cncnc1 [Cpd 132]"
  log10 of Ki: 2.22
- compound: "Cc1cc(O)cc(C)c1C[C@H](N)C(=O)N(Cc1nc(-c2ccccc2F)c(C)[nH]1)C(C)C [Cpd 117]"
  log10 of Ki: -0.62
- compound: "Cc1cc(O)cc(C)c1C[C@H](N)C(=O)N(Cc1cccnc1)[C@@H](C)c1nc(-c2ccccc2)c[nH]1 [Cpd 92]"
  log10 of Ki: -0.60
- compound: "Cc1cc(O)cc(C)c1C[C@H](N)C(=O)N(Cc1nc(-c2cccc(NS(C)(=O)=O)c2)c(C)[nH]1)C(C)C [Cpd 45]"
  log10 of Ki: 0.08
- compound: "Cc1cc(C(N)=O)cc(C)c1C[C@H](N)C(=O)N(Cc1cccc(-c2nnn[nH]2)c1)[C@@H](C)c1nc(-c2ccccc2)c[nH]1 [Cpd 242]"
  log10 of Ki: 0.37
- compound: "Cc1cc(C(N)=O)cc(C)c1C[C@H](N)C(=O)N(Cc1ccccc1)[C@@H](COCc1ccccc1)c1nc(-c2ccccc2)c[nH]1 [Cpd 64]"
  log10 of Ki: 2.07

Task item: Quick one: give measured log10 of Ki for Cc1cc(C(N)=O)cc(C)c1C[C@H](N)C(=O)N(Cc1nc(-c2ccccc2)c[nH]1)[C@H](C)c1ccccc1 [Cpd 94]
Reply: 0.61
